# Tested on: L. infantum (MHOM/FR/96/LEM3323-cl4)
# experiment: Leishmania clinical isolate panel screen (drug-susceptibility assay in infected macrophages)
# Assay type: cell-based
# condition-info: Macrophage, Visceral leishmaniasis, L. infantum (MHOM/FR/96/LEM3323-cl4), Miltefosine: mean only, read-out: IC50 Mean ± SEM
assay-endpoint: IC50 (µM)

molecule: COc1nc(OCC(F)(F)F)cnc1-c1c(C)[nH]c2nc(N)nc(C)c12 [Compound C3]
assay-endpoint: IC50
measured-value: 0.33

molecule: CCCCCCCCCCCCCCCCOP(=O)([O-])OCC[N+](C)(C)C [Miltefosine, reference compound]
assay-endpoint: IC50
measured-value: 1.81

molecule: COc1cc(C#N)ccc1-c1c(C)[nH]c2nc(N)nc(C)c12 [Compound C1]
assay-endpoint: IC50
measured-value: 0.2

====

# Test system: L. major (MHOM/IL/81/Friedlin)
# experiment: Leishmania clinical isolate panel screen (drug-susceptibility assay in infected macrophages)
# Format: cell-based
# condition-info: Macrophage, read-out: IC50 Mean ± SEM
pIC50: −log10 of the molar value.

molecule: Cc1[nH]c2nc(N)nc(C)c2c1-c1ccc(C#N)c2c1OCO2 [Compound C4]
pIC50: 7.10

====

# Tested on: L. infantum (MHOM/MA/67/ITMAP263)
# experiment: Intracellular amastigote susceptibility assay (primary peritoneal mouse macrophages)
# Assay type: cell-based
# condition-info: Leishmania infantum, Macrophage; L. infantum (MHOM/MA/67/ITMAP263) amastigotes in mouse macrophages, 96-h incubation

molecule: COc1cc(C#N)ccc1-c1c(C)[nH]c2nc(N)nc(C)c12
system-name: L. infantum (MHOM/MA/67/ITMAP263)
IC90 [µM]: 2.9
--
molecule: COc1nc(OCC(F)(F)F)cnc1-c1c(C)[nH]c2nc(N)nc(C)c12
system-name: L. infantum (MHOM/MA/67/ITMAP263)
IC90 [µM]: 3.48
--
molecule: Cc1[nH]c2nc(N)nc(C)c2c1-c1ccc(C#N)c2c1OCO2
system-name: L. infantum (MHOM/MA/67/ITMAP263)
IC90 [µM]: 0.37
--
molecule: Cc1[nH]c2nc(N)nc(C)c2c1-c1ccc(F)c2c1OCO2
system-name: L. infantum (MHOM/MA/67/ITMAP263)
IC90 [µM]: 0.33

====

# Tested on: L. infantum (MHOM/BR/2007/WC (L3015))
# experiment: Leishmania clinical isolate panel screen (drug-susceptibility assay in infected macrophages)
# Assay type: cell-based
# condition-info: Macrophage, read-out: IC50 Mean ± SEM
pIC50: −log10 of the molar value.
assay-endpoint: pIC50

compound: Cc1[nH]c2nc(N)nc(C)c2c1-c1ccc(C#N)c2c1OCO2 [Compound C4]
measured-value: 7.30

====

# pIC50 per record follows
# Test system: L. donovani (MHOM/ NP/2003/BPK282/0-cl4)
# experiment: Leishmania clinical isolate panel screen (drug-susceptibility assay in infected macrophages)
# Format: cell-based
# condition-info: Macrophage, read-out: IC50 Mean ± SEM
# Procedure: Female Swiss mice (BW ~20 g) were purchased from a commercial source (Janvier France) and kept in quarantine for 1 week. The animals were housed in group and drinking water was available ad libitum. […] Stock solutions of the DNDi lead compounds were prepared in 100% DMSO at 20 mM and robotically further diluted in water. […] The percentage infection-inhibition compared to a positive control (untreated infected macrophages) was microscopically determined and used to calculate the IC50 and IC90 values.
pIC50: −log10 of the molar value.

molecule: CCCCCCCCCCCCCCCCOP(=O)([O-])OCC[N+](C)(C)C [Miltefosine, reference compound]
pIC50: 5.70
--
molecule: Cc1[nH]c2nc(N)nc(C)c2c1-c1ccc(C#N)c2c1OCO2 [Compound C4]
pIC50: 7.52
